TARGET_OR_SYSTEM: Serine/threonine-protein kinase pim-1 (Homo sapiens, UniProt P11309)
Sequence (P11309 whole entry): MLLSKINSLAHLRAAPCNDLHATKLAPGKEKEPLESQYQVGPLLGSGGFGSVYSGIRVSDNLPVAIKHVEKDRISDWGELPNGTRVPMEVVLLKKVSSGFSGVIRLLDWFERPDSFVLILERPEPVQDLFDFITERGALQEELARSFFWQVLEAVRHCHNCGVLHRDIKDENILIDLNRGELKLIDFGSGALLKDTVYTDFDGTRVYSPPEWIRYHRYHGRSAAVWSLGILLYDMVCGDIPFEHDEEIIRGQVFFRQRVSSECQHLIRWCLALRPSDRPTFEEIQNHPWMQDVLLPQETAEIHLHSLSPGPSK
Below, each entry is listed alongside its reported IC50.
Quick reminder: number only, in nM, skip the unit.

Ask: Requested read-out IC50, target or system Serine/threonine-protein kinase pim-1 (Homo sapiens, UniProt P11309), entry `N#Cc1c(-c2ccco2)c2c([nH]c1=O)-c1ccccc1OC2`
Reply: 870

Ask: API: value(readout= IC50, system= Serine/threonine-protein kinase pim-1 (Homo sapiens, UniProt P11309), query= `N#Cc1c(-c2cccs2)c2c([nH]c1=O)-c1ccccc1OC2` )
Reply: 460

Ask: Quick check: IC50 on Serine/threonine-protein kinase pim-1 (Homo sapiens, UniProt P11309), item `N#Cc1c(-c2cccs2)cc(-c2cccs2)nc1O` ?
Reply: 990

Ask: Checklist item: IC50 tested on Serine/threonine-protein kinase pim-1 (Homo sapiens, UniProt P11309), entry `N#Cc1c(-c2cccs2)cc(C(F)(F)F)[nH]c1=O` , value?
Reply: 3540
